Form field: collision cross section in nitrogen (one value per entry).
test: collision cross section in nitrogen (drift tube, single-field); higher = larger gas-phase ion size; details: ion type: [M+Na]; ion source: ESI; ion mode: Positive;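 note: chemical standards at 10 µM analysed by drift tube IMS-QTOF MS in about 3.95 torr nitrogen, mean of duplicate injections differing ≤1%, mass error below 10 ppm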
A number alone suffices; assume Å².

Solved cases (2 shown):
CCC(C)(C)C(=O)OC1=C(c2ccc(Cl)cc2Cl)C(=O)OC12CCCCC2 [Spirodiclofen]; 209.5
CCN(CC)c1ccc2c(c1)Oc1cc(N(CC)CC)ccc1C21OC(=O)c2ccccc21 [C.I. Solvent Red 49]; 230.2

collision cross section in nitrogen in this record for CC(=O)Nc1ccc2c(c1)Cc1cc(NC(C)=O)ccc1-2 [2,7-Acetylaminofluorene] : 180.9

* * *

Form field: collision cross section in nitrogen (one value per entry).
experiment: collision cross section in nitrogen (drift tube, single-field); higher = larger gas-phase ion size; conditions: ion type: [M+Na]; ion source: ESI; ion mode: Positive
A number alone suffices; assume Å².

Solved cases (4 shown):
COc1ccccc1OCC(O)CO (centres undefined); 147.2
CC(C)COC(=O)CCCCC(=O)OCC(C)C [Diisobutyl adipate]; 179.8
CC1CNc2c(cccc2S(=O)(=O)N[C@@H](CCCNC(=N)N)C(=O)N2CC[C@@H](C)C[C@@H]2C(=O)O)C1 (some centres undefined); 221.2
CCN(CC)CCNc1ccc(CNC=O)c2sc3ccc(OC)cc3c(=O)c12; 198.8

Let's switch to this compound now.
collision cross section in nitrogen in this record for "CC(C)c1c(C(=O)Nc2ccccc2)c(-c2ccccc2)c(-c2ccc(F)cc2)n1CC[C@@H](O)C[C@@H](O)CC(=O)O" : 231.4

* * *

test: collision cross section in nitrogen (drift tube, single-field); higher = larger gas-phase ion size; conditions: ion type: [M+Na]; ion source: ESI; ion mode: Positive
measured_parameter: collision cross section in nitrogen (Å²)
A number alone suffices; assume Å².

CCOC(=O)COc1cc(-n2ncc(C(F)(F)F)c(C)c2=O)c(F)cc1Cl; 191.4
CCOC(=O)COC(=O)c1cc(Oc2ccc(C(F)(F)F)cc2Cl)ccc1[N+](=O)[O-]; 210.7
CCOC(=O)CC(=O)c1ccccc1 [Ethyl benzoylacetate]; 155.9

Let's switch to this compound now.
collision cross section in nitrogen in this record for "CC(=O)S[C@H](C(=O)N[C@H]1Cc2ccccc2[C@H]2CCC[C@@H](C(=O)O)N2C1=O)C(C)C" : 198.7
